ASSAY TEXT: Therapeutic index, ratio of IC50 for human Caco-2 cells expressing wild type b-Raf to IC50 for human WM266.4 cells expressing b-Raf V600E mutant
Type: cell-based
CONDITION INFO: read-out: Ratio IC50
ASSAY ENDPOINT: selectivity ratio

Given the compound CCOC(=O)N1C2CCC1CC(c1ccnc3c(-c4cccc5[nH]ncc45)c(-c4ccncc4)nn13)C2 (stereo not drawn) , write its reported selectivity ratio.
2.7

Given the compound CCOC(=O)N1C2CCC1CC(c1ccnc3c(-c4ccc(F)c5[nH]ncc45)c(-c4ccncc4)nn13)C2 (stereo not drawn) , write its reported selectivity ratio.
12

Given the compound CCOC(=O)N1C2CCC1CC(c1ccnc3c(-c4ccc(Cl)c5[nH]ncc45)c(-c4ccncc4)nn13)C2 (stereo not drawn) , write its reported selectivity ratio.
19.3

###

System: Caco-2
ASSAY TEXT: Antiproliferative activity against human Caco-2 cells expressing wild type b-Raf
Format: functional, cell-based
ASSAY ENDPOINT: pIC50
Keep it numeric: pIC50 is minus log10 of the concentration in mol/L.

Given the compound CCOC(=O)N1C2CCC1CC(c1ccnc3c(-c4cccc5[nH]ncc45)c(-c4ccncc4)nn13)C2 (stereo unspecified) , write its reported pIC50.
6.10

###

The following are reported IC50 results, target or system Serine/threonine-protein kinase B-raf (Homo sapiens).
Lab book: enter the figure in nM, no units written.

Given the compound CN1C2CC(S(=O)(=O)c3ccccc3)C1Cc1cnc3c(-c4ccc(Cl)c(O)c4)c(-c4ccncc4)nn3c12 (centres undefined) , write its reported IC50.
0.8

Given the compound CCN1C2CCC1CC(c1ccnc3c(-c4ccc(C(F)(F)F)c5[nH]ncc45)c(-c4ccncc4)nn13)C2 (centres undefined) , write its reported IC50.
45

Given the compound CCN1C2CCC1CC(c1ccnc3c(-c4cccc5[nH]ncc45)c(-c4ccncc4)nn13)C2 (centres undefined) , write its reported IC50.
46.6

Given the compound COC(=O)C1CC2c3c(cnc4c(-c5ccc(Cl)c(O)c5)c(-c5ccncc5)nn34)CC1N2C (centres undefined) , write its reported IC50.
1.6

Given the compound CCN1C2CCC1CC(c1ccnc3c(-c4ccc(Cl)c(O)c4)c(-c4ccncc4)nn13)C2 (centres undefined) , write its reported IC50.
0.5

Given the compound COc1cc(-c2c(-c3ccncc3)nn3c(C4CC5CCC(C4)N5)ccnc23)ccc1Cl (centres undefined) , write its reported IC50.
8.5

Given the compound CCOC(=O)N1C2CCC1CC(c1ccnc3c(-c4ccc(C(F)(F)F)c5[nH]ncc45)c(-c4ccncc4)nn13)C2 (centres undefined) , write its reported IC50.
4.4

Given the compound CN1C2CC(CO)C1Cc1cnc3c(-c4ccc(Cl)c(O)c4)c(-c4ccncc4)nn3c12 (centres undefined) , write its reported IC50.
0.6

Given the compound CCOC(=O)N1C2CCC1CC(c1ccnc3c(-c4ccc(Cl)c5[nH]ncc45)c(-c4ccncc4)nn13)C2 (centres undefined) , write its reported IC50.
0.4

Given the compound CCOC(=O)N1C2CCC1CC(c1ccnc3c(-c4ccc(F)c(F)c4)c(-c4ccncc4)nn13)C2 (centres undefined) , write its reported IC50.
302

Given the compound CCOC(=O)N1C2CCC1CC(c1c(C)cnc3c(-c4cccc5[nH]ncc45)c(-c4ccncc4)nn13)C2 (centres undefined) , write its reported IC50.
8.4

Given the compound CCOC(=O)N1C2CCC1CC(c1ccnc3c(-c4ccc(-c5nnco5)cc4)c(-c4ccncc4)nn13)C2 (centres undefined) , write its reported IC50.
151

Given the compound O=C(O)[C@H]1CCCN1C(=O)N1C2CCC1CC(c1ccnc3c(-c4cccc5[nH]ncc45)c(-c4ccncc4)nn13)C2 (some centres undefined) , write its reported IC50.
2.1

Given the compound CCN1C2CCC1CC(c1ccnc3c(-c4ccc(Cl)c5[nH]ncc45)c(-c4ccncc4)nn13)C2 (centres undefined) , write its reported IC50.
4.4

###

TGT: Serine/threonine-protein kinase B-raf (Homo sapiens, UniProt P15056)
Sequence (P15056 whole entry): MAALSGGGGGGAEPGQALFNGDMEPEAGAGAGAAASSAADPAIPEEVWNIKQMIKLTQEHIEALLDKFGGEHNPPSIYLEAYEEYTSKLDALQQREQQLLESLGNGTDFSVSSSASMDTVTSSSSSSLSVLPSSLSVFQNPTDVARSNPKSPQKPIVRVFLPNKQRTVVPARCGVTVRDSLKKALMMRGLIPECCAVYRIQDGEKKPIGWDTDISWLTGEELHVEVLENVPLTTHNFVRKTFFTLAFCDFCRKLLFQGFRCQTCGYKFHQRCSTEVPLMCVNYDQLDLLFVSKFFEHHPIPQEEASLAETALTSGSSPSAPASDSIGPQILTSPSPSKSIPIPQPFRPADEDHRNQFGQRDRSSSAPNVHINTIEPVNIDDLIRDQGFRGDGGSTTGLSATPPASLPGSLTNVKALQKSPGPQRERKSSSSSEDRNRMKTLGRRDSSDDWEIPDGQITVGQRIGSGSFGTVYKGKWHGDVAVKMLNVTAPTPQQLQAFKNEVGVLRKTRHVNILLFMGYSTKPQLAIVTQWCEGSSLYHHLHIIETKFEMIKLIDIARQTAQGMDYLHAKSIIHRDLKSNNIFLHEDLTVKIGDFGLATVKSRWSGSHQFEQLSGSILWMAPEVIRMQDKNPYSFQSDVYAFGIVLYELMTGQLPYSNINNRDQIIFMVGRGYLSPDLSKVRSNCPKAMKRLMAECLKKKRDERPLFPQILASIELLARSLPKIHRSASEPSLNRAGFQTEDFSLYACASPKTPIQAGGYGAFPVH
ASSAY ENDPOINT: IC50

Given the compound CCOC(=O)N1C2CCC1CC(c1ccnc3c(-c4cccc5[nH]c(=O)[nH]c45)c(-c4ccncc4)nn13)C2 (stereo not given) , write its reported IC50.
> 1 µM

Given the compound CCOC(=O)N1C2CCC1CC(c1ccnc3c(-c4ccc5c(c4)NC(=O)C5)c(-c4ccncc4)nn13)C2 (stereo not given) , write its reported IC50.
> 1 µM

Given the compound CCOC(=O)N1C2CCC1CC(c1ccnc3c(-c4ccc(Cl)c(O)c4)c(-c4ccncc4)nn13)C2 (stereo not given) , write its reported IC50.
< 0.002 µM

Given the compound CS(=O)(=O)C1C2CCC1CC(c1ccnc3c(-c4ccc(Cl)c(O)c4)c(-c4ccncc4)nn13)C2 (stereo not given) , write its reported IC50.
< 0.002 µM

Given the compound CCOC(=O)N1C2CCC1CC(c1ccnc3c(-c4cccc5[nH]ccc45)c(-c4ccncc4)nn13)C2 (stereo not given) , write its reported IC50.
> 1 µM

Where do the numbers come from? From ChEMBL document CHEMBL1156135.
